Target: T1, human neutral endopeptidase 24.11 (human), P08473
T1 chain: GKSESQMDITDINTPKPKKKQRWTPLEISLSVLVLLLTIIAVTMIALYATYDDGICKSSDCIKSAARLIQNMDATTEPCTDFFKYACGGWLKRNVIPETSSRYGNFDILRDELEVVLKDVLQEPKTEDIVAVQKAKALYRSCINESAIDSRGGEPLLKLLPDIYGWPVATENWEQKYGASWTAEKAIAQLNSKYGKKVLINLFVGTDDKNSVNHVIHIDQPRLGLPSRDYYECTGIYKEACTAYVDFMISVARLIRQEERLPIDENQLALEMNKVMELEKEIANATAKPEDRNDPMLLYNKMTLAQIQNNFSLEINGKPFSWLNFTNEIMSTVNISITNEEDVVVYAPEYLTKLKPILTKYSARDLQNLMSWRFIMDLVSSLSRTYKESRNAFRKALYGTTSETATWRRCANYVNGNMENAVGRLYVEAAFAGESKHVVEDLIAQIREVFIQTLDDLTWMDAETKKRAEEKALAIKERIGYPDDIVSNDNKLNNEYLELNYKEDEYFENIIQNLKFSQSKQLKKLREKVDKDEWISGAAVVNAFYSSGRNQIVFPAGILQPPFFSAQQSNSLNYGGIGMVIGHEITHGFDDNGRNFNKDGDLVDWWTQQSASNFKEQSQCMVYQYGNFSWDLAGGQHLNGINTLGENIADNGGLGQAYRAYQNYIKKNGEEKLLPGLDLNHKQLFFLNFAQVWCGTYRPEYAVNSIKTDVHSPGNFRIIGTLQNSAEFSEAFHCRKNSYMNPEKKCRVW
Assay: cell-based or functional assay
So basically: is Half-Life under 300 min? Then YES. Not under? Then NO.

| binder | assignedLabel |
| --- | --- |
| SLRRSSCFTGSIDRIRAQSGLGCNSFRY (modifications not checked) [ANF 27] | NO |
| TAPRSLRRSSCFTGSIDRIRAQSGLGCNSFRY (modifications not checked) [ANF 76] | NO |
| SLRRSSCFGGRIDRIGAQSGLGCNSFRY (modifications not checked) [rat ANP] | YES |

Okay, next one:
*Q* Confirm or reject: Half-Life of SLRRSSCFGGRMDRIGAQSGLGCNSFRY (modifications not checked) [hANF(1-28), wild-type human atrial natriuretic factor] lies strictly below 300 min
*A* YES
